Data provenance is the supplement of paper PMC6555819.

Listing of entries alongside the reported PBM binding z-score.
test system: PPARg DBDmut:RXRa IVT, anti-PPARg (DBD mutation: PPARg1 K132A/R137A, NR concentration 270 nM, RXRa partner concentration 90 nM); assay: PBM binding z-score (relative to random genomic background probes); higher = stronger binding; sequences stand for … in GC…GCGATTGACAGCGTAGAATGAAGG
Lab note: write the figure by itself, no unit.

>>> quantitative_result("AAAATGAGGTTATTAAGATCAGGGAATTGCGGTC")
0.794
>>> quantitative_result("CCGACTGGGGCAGAAAGGTTGCCATACCATCCGG")
-1.21
>>> quantitative_result("ATATGTTGGTTATCGGGTCATTCAGTTTGCGCAT")
1.53
>>> quantitative_result("TGAATGAGGTTATAAGATCAGCGAACGTTGCAAA")
0.4

Incoming: I have this sequence here, ACTAGCAGGCCAAGGGTCACTCTAGATTAGTCCG , and I need its recorded PBM binding z-score.
Outgoing: -0.404

Incoming: What about this sequence? CCACACAGGTGAAAGGTAACTCAGTCTGGTACGC
Outgoing: 0.0609

Incoming: Now consider ACTAGTTGGTCCGCTGAGGTCACACACAATTCGG and answer again.
Outgoing: 0.377

Incoming: What would you report for GCGACTGGGGCATCAGCAGGTTAGCATAACTTAA ?
Outgoing: -1.06

Incoming: Item: GGAACGAGGGCAAGTTAATAGCAGAGTTTGATGG
Outgoing: 0.284

Incoming: What about CCAGACAGGTGAGAAGGTAAATCAGCCTCGATTA ?
Outgoing: -0.421

Incoming: Can you handle GCTAGCAGGCCATTTGGGTCACTAAATGACGGGC next?
Outgoing: -1.03

Incoming: What would you report for TCTTCTAGATCAATAGAGGTTAAGAAAGTGCGCT ?
Outgoing: 1.87

Incoming: Please do the same for CCTAGCAGGCCAGGGTCTCTCAAGCATTTCGCTT as well.
Outgoing: -1.73

Incoming: Here is the next sequence: AGAATGAGGCTACCAAAGATCAGGGAAACGCTTG
Outgoing: 0.153

Incoming: Now this one: GCAGACAGGTAAAACGCAGGTAACTCAGGGTGGC
Outgoing: -1.23

Incoming: Follow-up item: ATATGTAGGTTAATGGTCATTCAGGTTGGTTCGC
Outgoing: 4.17
